Assignment: determine reported pIC50 for the given compounds.
- assay-target: E1-E2-DNA complex (Human papillomavirus 11)
- Sequence (P04015 whole entry, one chain of several): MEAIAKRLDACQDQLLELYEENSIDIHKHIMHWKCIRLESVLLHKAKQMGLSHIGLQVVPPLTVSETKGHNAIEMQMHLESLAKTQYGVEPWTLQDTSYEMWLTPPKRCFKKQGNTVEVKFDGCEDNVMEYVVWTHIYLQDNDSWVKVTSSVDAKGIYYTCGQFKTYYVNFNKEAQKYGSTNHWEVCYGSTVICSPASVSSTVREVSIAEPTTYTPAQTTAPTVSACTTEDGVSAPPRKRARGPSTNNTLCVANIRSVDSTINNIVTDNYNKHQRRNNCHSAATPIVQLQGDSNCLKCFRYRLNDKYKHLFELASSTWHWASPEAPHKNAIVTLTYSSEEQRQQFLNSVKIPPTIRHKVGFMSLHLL
- method-description: E2-dependent E1 DNA binding assay (E1-E2 DNA assay)
- condition-context: E1-E2 DNA assay of Example 11, HPV-11
pIC50: −log10 of the molar value.

{"columns": ["compound", "assay-target", "reported-measurement"],
 "data": [
  ["CC(NC(=O)C1C(c2ccc(Cl)c(Cl)c2)OC23C(=O)c4ccccc4C2(O)OC(=O)C13)c1ccccc1 (stereo not shown) [Compound 3100]", "E1-E2-DNA complex (Human papillomavirus 11)", "4.30 to 5.30"],
  ["CC(=O)c1ccc(NC(=O)C2C(c3ccc(Cl)c(Cl)c3)OC34C(=O)c5ccccc5C3(O)OC(=O)C24)cc1 (racemic)", "E1-E2-DNA complex (Human papillomavirus 11)", "> 6.30"],
  ["O=C(Nc1cccc(Cl)c1)C1C(c2ccc(Br)c(Br)c2)OC2(C(=O)c3ccccc3C2=O)C1C(=O)O (stereo not shown)", "E1-E2-DNA complex (Human papillomavirus 11)", "> 6.30"],
  ["O=C(Nc1ccc(N2CCOCC2)cc1)C1C(c2ccc(F)c(F)c2)OC2(C(=O)c3ccccc3C2=O)C1C(=O)O (stereo not shown)", "E1-E2-DNA complex (Human papillomavirus 11)", "5.30 to 6.30"],
  ["CC(=O)NCc1ccc(NC(=O)C2C(c3ccc(Br)c(Br)c3)OC34C(=O)c5cc(C)sc5C3(O)OC(=O)C24)cc1 (single isomer, unassigned)", "E1-E2-DNA complex (Human papillomavirus 11)", "> 6.30"],
  ["O=C(NCCc1ccccc1Cl)C1C(c2ccc(Cl)c(Cl)c2)OC2(C(=O)c3ccccc3C2=O)C1C(=O)O (stereo not shown)", "E1-E2-DNA complex (Human papillomavirus 11)", "> 6.30"]
]}

Please supply pIC50 for each of the following items, keeping them in order.
1. O=C(Nc1ccccc1F)C1C(c2ccc(Cl)c(Cl)c2)OC2(C(=O)c3ccccc3C2=O)C1C(=O)O (stereo not shown)
2. O=C(Nc1ccc(-c2csnn2)cc1)C1C(c2ccc(Br)c(Br)c2)OC2(C(=O)c3ccccc3C2=O)C1C(=O)O (single isomer, unassigned) [Compound A1002]
3. CC(C)c1ccc(C2OC3(C(=O)c4ccccc4C3=O)C(C(=O)O)C2C(=O)Nc2ccc3c(c2)OCO3)cc1 (stereo not shown)
4. O=C(Nc1ccc2c(c1)OCO2)C1C(c2ccc(Cl)c(F)c2)OC2(C(=O)c3ccccc3C2=O)C1C(=O)O (stereo not shown)

stdout:
1. > 6.30
2. > 6.30
3. 4.30 to 5.30
4. 5.30 to 6.30

Just for reference, patent EP1345943B1 is where these values come from.
